# Study system: Phosphodiesterase 4 (Cavia porcellus)
# Experiment description: Phosphodiesterase 4 inhibitory activity measured against guinea pig macrophage homogenate
Property: IC50 (nM)

[
  {
    "Compound": "COc1ccc(S(=O)(=O)C(CC(=O)NO)CC(C)C)cc1OC1CCCC1 (stereo not given)",
    "IC50 [nM]": 102
  }
]

(P) CCCC(CC(=O)NO)S(=O)(=O)c1ccc(OC)c(OC2CCCC2)c1 (stereo not given)
(Q) COc1ccc(S(=O)(=O)C(CC(=O)NO)c2cccc(OCc3ccccc3)c2)cc1OC1CCCC1 (stereo not given)
(R) COc1ccc(S(=O)(=O)C(CC(=O)NO)c2ccc(-c3ccccc3)cc2)cc1 (stereo not given)
(S) COc1ccc(S(=O)(=O)C(CC(=O)NO)c2cccc(Oc3ccccc3)c2)cc1OC1CCCC1 (stereo not given)
Problem: With regard to IC50, arrange the entries in ascending order, please. Reply with the labels, ordered as the question asks.
Result: P, Q, S, R
(P: 55 nM, Q: 89 nM, S: 260 nM, R: 3600 nM)
